FYI, the data here is from patent US20040224958A1.

molecular target: cdc2/cyclinB (Homo sapiens); experiment: Cyclin-Dependent Kinase Assay cdc2/cyclinB
Measured Endpoint: IC50 (nM)

Known results for compounds:
Compound: O=c1ccc2cnc(Nc3cc([N+](=O)[O-])ccc3F)nc2n1CC1CC1 [Example 572]
Measured Endpoint: IC50
Scale Unit: nM
Recorded Number: 430
//
Compound: COc1cc(Nc2ncc3ccc(=O)n(C(C)C)c3n2)cc(OC)c1OC [Example 417]
Measured Endpoint: IC50
Scale Unit: nM
Recorded Number: 880
//
Compound: CCC(C)n1c(=O)ccc2cnc(Nc3ccc(NC(=O)OC(C)(C)C)cc3)nc21 (stereo not drawn) [Example 450]
Measured Endpoint: IC50
Scale Unit: nM
Recorded Number: 140
//
Compound: O=c1ccc2cnc(Nc3ccc4[nH]ncc4c3)nc2n1C1CCCC1 [Example 536]
Measured Endpoint: IC50
Scale Unit: nM
Recorded Number: 18.5
//
Compound: COc1cc(Nc2ncc3ccc(=O)n(CC(F)(F)F)c3n2)cc(C(F)(F)F)c1 [Example 606]
Measured Endpoint: IC50
Scale Unit: nM
Recorded Number: 3500

a = CCCn1c(=O)ccc2cnc(Nc3ccc4[nH]ncc4c3)nc21 [Example 324]
b = CCCn1c(=O)ccc2cnc(Nc3ccc(OC)c(OC)c3)nc21 [Example 331]
c = O=c1ccc2cnc(Nc3ccc(N4CCCCC4)cc3)nc2n1[C@@H]1C[C@H]2CC[C@@H]1C2 (relative stereo) [Example 181]
d = O=c1ccc2cnc(Nc3ccc(N4CCCC(CO)C4)cc3)nc2n1C1CC2CCC1C2 (stereo not drawn) [Example 231]
Order the records by IC50, with each subsequent value no larger than the one before. Output spec: a listing of the labels in the requested order.
c, b, d, a
(c: 33400 nM, b: 415 nM, d: 220 nM, a: 82.5 nM)

###

molecular target: cdc2/cyclinB (Homo sapiens); experiment: Cyclin-Dependent Kinase Assay cdc2/cyclinB
pIC50: −log10 of the molar value.
Measured Endpoint: pIC50

Use the examples below as a reference point.
Molecule: CCCCn1c(=O)ccc2cnc(Nc3ccccc3)nc21
Recorded Number: 6.70
--
Molecule: Cc1ccc(Nc2ncc3ccc(=O)n(C4CCCC4)c3n2)cc1C
Recorded Number: 6.70
--
Molecule: CCCCn1c(=O)ccc2cnc(Nc3cc(Cl)cc(Cl)c3)nc21
Recorded Number: 6.78
--
Molecule: CCCn1c(=O)ccc2cnc(Nc3ccc(OC)c(O)c3)nc21
Recorded Number: 6.49

P = CC(=O)Nc1ccc(Nc2ncc3ccc(=O)n(C(C)C)c3n2)cc1
Q = CCC(C)n1c(=O)ccc2cnc(Nc3cc(OC)c(OC)c(OC)c3)nc21 (stereo not shown)
Hi, I'm comparing P with Q and wondering which one has the bigger number for pIC50. Any idea? Please identify the chosen entry by its label.
P
(P: 6.78, Q: 6.47)

I = CCCn1c(=O)ccc2cnc(Nc3cccc(C(F)(F)F)c3)nc21
II = CCn1c(=O)ccc2cnc(Nc3ccc(O)c(Cl)c3)nc21
Between I and II , which one shows the smaller pIC50 number? Respond with the label that goes with your answer.
I
(I: 6.44, II: 6.78)

P = O=c1ccc2cnc(Nc3ccc(Cl)c(C(F)(F)F)c3)nc2n1C1CCCC1
Q = CC(C)n1c(=O)ccc2cnc(Nc3cc(C(F)(F)F)ccc3F)nc21
Hi there! Just curious which has the higher pIC50 between P and Q . Label of pick, please.
P
(P: 6.26, Q: 5.59)

###

target: cdk2/cyclinE (Homo sapiens); assay: Cyclin-Dependent Kinase Assay cdk2/cyclinE; settings: cdk2/E IC50
pIC50: −log10 of the molar value.
Measured Endpoint: pIC50

Solved entries:
Compound: CCCn1c(=O)ccc2cnc(Nc3ccc(OC)c(Cl)c3)nc21 [Example 310]
pIC50: 6.86
//
Compound: CCn1c(=O)ccc2cnc(Nc3ccc4[nH]nnc4c3)nc21 [Example 287]
pIC50: 6.83

A = O=C1CSc2ccc(Nc3ncc4ccc(=O)n(CC5CC5)c4n3)cc2N1 [Example 584]
B = CC(C)n1c(=O)ccc2cnc(Nc3ccc(OC(F)(F)F)cc3)nc21 [Example 444]
Returns: the argument ( A or B ) having the larger pIC50. // caller expects the label of the chosen entry
A

###

biological target: cdc2/cyclinB (Homo sapiens, UniProt P06493); test: Cyclin-Dependent Kinase Assay cdc2/cyclinB
Sequence (P06493 whole entry): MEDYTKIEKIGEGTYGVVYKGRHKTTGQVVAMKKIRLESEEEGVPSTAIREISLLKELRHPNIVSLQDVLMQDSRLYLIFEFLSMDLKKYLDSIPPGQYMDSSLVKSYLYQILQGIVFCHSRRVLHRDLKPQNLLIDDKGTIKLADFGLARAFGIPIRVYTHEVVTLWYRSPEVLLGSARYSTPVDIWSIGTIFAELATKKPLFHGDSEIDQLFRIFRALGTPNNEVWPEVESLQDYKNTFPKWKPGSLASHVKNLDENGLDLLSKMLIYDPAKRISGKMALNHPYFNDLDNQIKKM
Sequence (P14635 whole entry, further chain): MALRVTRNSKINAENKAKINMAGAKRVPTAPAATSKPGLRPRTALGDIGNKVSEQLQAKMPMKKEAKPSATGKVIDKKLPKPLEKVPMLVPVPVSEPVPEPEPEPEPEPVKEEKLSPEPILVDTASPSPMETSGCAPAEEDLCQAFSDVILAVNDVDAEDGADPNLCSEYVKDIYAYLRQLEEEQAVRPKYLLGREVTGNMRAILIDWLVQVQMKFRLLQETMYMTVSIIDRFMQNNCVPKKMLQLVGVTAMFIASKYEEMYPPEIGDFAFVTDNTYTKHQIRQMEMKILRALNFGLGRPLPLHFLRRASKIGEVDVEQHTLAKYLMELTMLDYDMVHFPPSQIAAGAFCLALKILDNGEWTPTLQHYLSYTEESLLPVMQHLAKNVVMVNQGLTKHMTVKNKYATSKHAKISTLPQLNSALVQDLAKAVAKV
pIC50: −log10 of the molar value.
Measured Endpoint: pIC50

# example entries with known answers
Compound: O=c1ccc2cnc(Nc3ccc(F)c(C(F)(F)F)c3)nc2n1C1CCCC1 [Example 534]
Assayed Target: cdc2/cyclinB (Homo sapiens, UniProt P06493)
Measured Endpoint: pIC50
Recorded Number: 6.72
--
Compound: O=c1ccc2cnc(Nc3ccc(N4CCC(CCCN5CCOCC5)CC4)cc3)nc2n1C1CC2CCC1C2 (stereo not shown) [Example 235]
Assayed Target: cdc2/cyclinB (Homo sapiens, UniProt P06493)
Measured Endpoint: pIC50
Recorded Number: 5.77
--
Compound: CCCCn1c(=O)ccc2cnc(Nc3cccc(C(F)(F)F)c3)nc21 [Example 373]
Assayed Target: cdc2/cyclinB (Homo sapiens, UniProt P06493)
Measured Endpoint: pIC50
Recorded Number: 6.37
--
Compound: O=c1ccc2cnc(Nc3cccc([N+](=O)[O-])c3)nc2n1CC(F)(F)F [Example 599]
Assayed Target: cdc2/cyclinB (Homo sapiens, UniProt P06493)
Measured Endpoint: pIC50
Recorded Number: 5.63
--
Compound: CN(C)c1ccc(Nc2ncc3ccc(=O)n(CCCOCc4ccccc4)c3n2)cc1 [Example 138]
Assayed Target: cdc2/cyclinB (Homo sapiens, UniProt P06493)
Measured Endpoint: pIC50
Recorded Number: 5.48
--
Compound: Cc1cc(Nc2ncc3ccc(=O)n(C(C)C)c3n2)cc(C)c1O [Example 441]
Assayed Target: cdc2/cyclinB (Homo sapiens, UniProt P06493)
Measured Endpoint: pIC50
Recorded Number: 6.54

P = O=c1ccc2cnc(Nc3ccc(N4CCc5ccccc5C4)cc3)nc2n1C1CCCCC1 [Example 171]
Q = O=c1ccc2cnc(Nc3ccc4c(c3)CCC4)nc2n1CC1CC1 [Example 587]
Could you kindly indicate whether P or Q has the higher pIC50 value? Identify your pick by its label.
Q

A = CCC(CC)n1c(=O)ccc2cnc(Nc3ccc4oc(=O)[nH]c4c3)nc21 [Example 517]
B = CCCn1c(=O)ccc2cnc(Nc3ccc(OC)c(F)c3)nc21 [Example 338]
Between the entries labeled A and B , whose measured pIC50 is lower? Write the label of whichever entry you select.
B
(B: 6.24, A: 7.21)

###

molecular target: cdk4/D (Homo sapiens); experiment: Cyclin-Dependent Kinase 4 (cdk4) Assay; type: biochemical; details: read-out: cdk4/D IC50
Sequence (P11802 whole entry): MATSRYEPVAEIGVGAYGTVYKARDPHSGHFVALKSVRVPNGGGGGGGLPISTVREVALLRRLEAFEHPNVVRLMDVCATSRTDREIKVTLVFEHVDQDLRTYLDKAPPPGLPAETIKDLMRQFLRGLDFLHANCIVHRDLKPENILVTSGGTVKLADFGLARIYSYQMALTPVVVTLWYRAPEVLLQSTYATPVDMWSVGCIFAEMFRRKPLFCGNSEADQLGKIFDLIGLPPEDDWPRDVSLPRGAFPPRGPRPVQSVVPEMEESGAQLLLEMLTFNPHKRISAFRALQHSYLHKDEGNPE
Sequence (P24385 whole entry, further chain): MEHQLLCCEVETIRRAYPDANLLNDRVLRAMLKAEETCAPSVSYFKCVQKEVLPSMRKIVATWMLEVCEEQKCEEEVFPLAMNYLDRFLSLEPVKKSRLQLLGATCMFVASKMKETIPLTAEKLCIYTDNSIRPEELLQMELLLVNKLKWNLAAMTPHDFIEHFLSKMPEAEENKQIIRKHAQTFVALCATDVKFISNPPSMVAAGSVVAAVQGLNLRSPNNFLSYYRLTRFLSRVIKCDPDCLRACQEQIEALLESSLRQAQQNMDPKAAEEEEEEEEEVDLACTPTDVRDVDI
pIC50: −log10 of the molar value.
Measured Endpoint: pIC50

Worked set:
Molecule: CCC(C)n1c(=O)ccc2cnc(Nc3ccccc3)nc21 (stereo not shown) [Example 446]
pIC50: 6.78

Molecule: CCCn1c(=O)ccc2cnc(Nc3ccc(F)c(C(F)(F)F)c3)nc21 [Example 335]
pIC50: 5.80

Molecule: O=C1CSc2ccc(Nc3ncc4ccc(=O)n(CC5CC5)c4n3)cc2N1 [Example 584]
pIC50: 7.01

Molecule: COc1ccc(Nc2ncc3ccc(=O)n(CC(F)(F)F)c3n2)cc1OC [Example 600]
pIC50: 5.75

A = CCCCn1c(=O)ccc2cnc(Nc3ccc(OC)c(F)c3)nc21 [Example 394]
B = O=c1ccc2cnc(Nc3ccc(O)c([N+](=O)[O-])c3)nc2n1C1CCCC1 [Example 551]
Larger number for pIC50: A , or B ? Choose, then provide that item's label.
A

a = CCn1c(=O)ccc2cnc(Nc3cc(OC)cc(C(F)(F)F)c3)nc21 [Example 300]
b = O=c1ccc2cnc(Nc3ccc(Cl)c(Cl)c3)nc2n1C1CCCC1 [Example 532]
c = CCC(CC)n1c(=O)ccc2cnc(Nc3ccc4[nH]ccc4c3)nc21 [Example 492]
d = CCCn1c(=O)ccc2cnc(Nc3cccc(S(N)(=O)=O)c3)nc21 [Example 348]
List items by pIC50 in falling order. Output the labels ranked as instructed.
d, c, b, a
(d: 7.85, c: 6.90, b: 5.82, a: 5.55)

###

molecular target: Cdk5/p25 (Homo sapiens); test: Cyclin-Dependent Kinase 5 High Throughput Screening (cdk5-HTS) Assay; assay type: biochemical; details: high throughput screen
pIC50: −log10 of the molar value.
Measured Endpoint: pIC50

Answered cases to consult:
Molecule Smiles: CCCn1c(=O)ccc2cnc(Nc3ccc(C)c(C)c3)nc21
Measured Endpoint: pIC50
Recorded Number: 7.16

Molecule Smiles: CCC(CC)n1c(=O)ccc2cnc(Nc3ccc(O)cc3F)nc21
Measured Endpoint: pIC50
Recorded Number: 6.97

Molecule Smiles: CCC(CC)n1c(=O)ccc2cnc(Nc3ccc(Cl)c(C(F)(F)F)c3)nc21
Measured Endpoint: pIC50
Recorded Number: 7.08

Molecule Smiles: CCCCn1c(=O)ccc2cnc(Nc3ccc(C#N)c(NC(C)=O)c3)nc21
Measured Endpoint: pIC50
Recorded Number: 7.04

Molecule Smiles: CCCn1c(=O)ccc2cnc(Nc3ccc(OC)c(O)c3)nc21
Measured Endpoint: pIC50
Recorded Number: 7.13

1 = CCCn1c(=O)ccc2cnc(Nc3ccc(OC)c(Cl)c3)nc21
2 = Cc1ccc(Nc2ncc3ccc(=O)n(C(C)C)c3n2)cc1NS(C)(=O)=O
Of 1 and 2 , whose reported pIC50 is the larger number? Provide the label of your selected option as the answer.
1
